Target: T1, biotinylated CD32bECDHis (human, UniProt P31994 43-223, limits assumed, biotinylated (sites not given))
T1 sequence (looked up): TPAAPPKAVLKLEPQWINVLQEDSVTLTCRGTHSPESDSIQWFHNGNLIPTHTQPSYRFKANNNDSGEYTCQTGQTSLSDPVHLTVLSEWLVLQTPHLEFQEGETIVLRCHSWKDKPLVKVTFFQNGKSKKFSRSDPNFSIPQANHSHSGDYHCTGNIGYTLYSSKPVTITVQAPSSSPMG
Assay: competition ELISA, competitor 016
Readout kind: % residual binding (%)
Number only, in %; omit the unit.

Record excerpt, results attached:
Antibody 024 (antibody, V domains shown, also called HuMab 024) VH: QVQLVQSGAEVKKPGASVKVSCKASGYTFTSYGLSWVRQAPGQGLEWMGWISPYNGNTHYAQKLQGRVTMTTDTSTSTAYMDLRSLRSDDTAVYYCARDSAAHGMDVWGQGTTVTVSS VL: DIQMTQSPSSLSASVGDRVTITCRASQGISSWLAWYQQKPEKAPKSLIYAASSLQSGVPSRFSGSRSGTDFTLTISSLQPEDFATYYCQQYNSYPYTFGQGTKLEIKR    101
Antibody 053 (antibody, human IgG1, V domains shown, Human antibody; also called HuMab 053) VH: QVQLVESGGGVVQPGRSLRLSCAVSGFTFRSYGMHWVRQAPGKGLEWVAVIWYDGSIKYYADSVKGRFTISRDNSKNTLYLQMNSLRAEDTAVYFCAREGGRDAFDIWGQGTMVTVSS VL: AVQLTQSPSSLSASVGDRVTITCRASQGISSALAWYQQKPGKAPKLLIYDASSLESGVPSRFSGSGSGTDFTLTISSLQPEDFATYCCQQFNSYPHTFGGGTKVEIKR    98

Value of % residual binding reported for the binder Antibody 038 (antibody, human IgG1, V domains shown, Human antibody; also called HuMab 038) VH: QVQLVESGGGVVQPGRSLRLSCAASGFTFSTYGMHWVRQAPGKGLEWVAVISHDGSDKYYADSVKGRFTISRDNSKNTLYLQMNSLRAEDTAVYYCARDQSIIETFDYWGQGTLVTVSS VL: EIVLTQSPATLSLSPGERATLSCRASQSVSSYLAWYQQKPGQAPRLLIYDASNRATGIPARFSGSGSGTDFTLTISSLEPEDFAVYYCQQRSNWGFTFGPGTKVDIKR is 105

For Antibody 028 (antibody, V domains shown, List 1 gives no VL for antibody 028; The VL is therefore uncertain; also called HuMab 028) VH: QVQVVQSGAEVKKPGASVKVSCKTSGYTFTSYGISWVRQAPGQGLEWMGWISAYNGNTKYAQKLQGRLTMTTDTSTTTAYMELRSLRSDDTAVYYCARDSAAHGMDVWGQGTTVSVSS VL: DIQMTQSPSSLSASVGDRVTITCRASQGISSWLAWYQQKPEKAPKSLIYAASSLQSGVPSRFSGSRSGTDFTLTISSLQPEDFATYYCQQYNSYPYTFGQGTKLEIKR the binder record lists % residual binding as 109

% residual binding for Antibody 063 (antibody, human IgG1, V domains shown, Human antibody; also called HuMab 063) VH: EVQLLESGGGLVQPGGSLRLSCAASGFTFSSYAMSWVRQAPGKGLEWVSAISDSGGSTYYADSVKGRFTISRDNSKNTLYLQMNSLRAEDTAAYYCAKEIAVALFDYWGQGTLVTVSS VL: EIVLTQSPATLSLSPGERATLSCRASQSVSSYLAWYQQKPGQAPRLLIYDASNRATGIPARFSGSGSGTDFTLTISSLEPEDFAVYYCQQRSSWPPYTFGQGTKLEIKR is 103
